Molecular target: COX-2 (Ovis aries)
Sequence (P79208 17-603): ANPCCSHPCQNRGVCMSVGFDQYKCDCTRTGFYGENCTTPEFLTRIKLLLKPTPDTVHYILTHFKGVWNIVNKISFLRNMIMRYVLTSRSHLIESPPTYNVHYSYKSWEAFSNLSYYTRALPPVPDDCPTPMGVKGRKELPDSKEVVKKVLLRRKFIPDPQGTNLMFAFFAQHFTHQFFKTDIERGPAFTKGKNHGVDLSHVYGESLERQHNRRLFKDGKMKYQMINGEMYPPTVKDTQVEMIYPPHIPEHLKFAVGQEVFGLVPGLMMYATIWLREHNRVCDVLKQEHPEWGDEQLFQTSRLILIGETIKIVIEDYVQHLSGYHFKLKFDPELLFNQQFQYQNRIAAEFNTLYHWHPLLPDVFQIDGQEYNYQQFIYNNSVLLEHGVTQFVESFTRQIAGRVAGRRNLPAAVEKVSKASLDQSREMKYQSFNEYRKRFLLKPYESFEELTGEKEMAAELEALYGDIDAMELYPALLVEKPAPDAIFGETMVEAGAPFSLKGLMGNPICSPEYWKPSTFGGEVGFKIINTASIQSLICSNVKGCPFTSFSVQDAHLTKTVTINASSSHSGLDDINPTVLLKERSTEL
pIC50: −log10 of the molar value.

{"compound": "O=C(/C=C/c1ccc(O)cc1)c1ccc(O)cc1O [Isoliquiritigenin, 2′,4,4′-trihydroxychalcone]", "pIC50": 4.98}

The reported numbers originate from patent US20050032882A1.
